Entry source: the RNAGym collection of RNA variant scans (doi:10.1126/science.aae0568)

Items are presented alongside their recorded yeast fitness.
B1: tRNA (parent)
chain: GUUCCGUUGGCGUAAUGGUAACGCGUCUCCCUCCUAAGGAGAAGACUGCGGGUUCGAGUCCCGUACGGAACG

- Variants of: B1
- MEASUREMENT_NOTES: yeast fitness relative to wild type (ratio to wild type); higher = fitter; tRNA-Arg(CCU), competitive growth, 37 C, YPD
Fewer inactive variants are shown than the library holds.
MEASURED_ATTRIBUTE: yeast fitness

GUUCCGUUGGCGUAAUGGAAACGCGUCUCCCUCCUAAGGAGAAAACUGCGGGUUCGAGUCCCGUACGGCACG [U19A G44A A69C]    0.685
GUUCCGUUGGCAUAAUGGUAACGCGUCUCCCUCCUAAGGCGAAGACUGCGGGUUCGAGUCCCGUCCGGAACG [G12A A40C A65C]    0.655
GUUCGGUUGGCGUAAUGGUAACGCGUCUCCUUCCUAAGGAGAAGACUGGGGGUUCGAGUCCCGUACGGAACG [C5G C31U C49G]    0.576
GUUCCGUCGGCGUAAUGGUAACGCGUCUCCCUCCUAAGGAGGAGACUGCGGGUUCGAGUCCCGUACGAAACG [U8C A42G G68A]    0.63
GUUCCGUUGGCGUAAUGGUAACGCGUCUACCUCCUAAGGAGUAGACUGCGGGUUCGAGUCCCGUACGGAACG [C29A A42U]    0.632
GUUCCGUUGGCGUAAUGGCAACGCGUCUCCCUCCUAAGGAGAAGACUGCGGGUUCGAGUCCCGUUCGGAACG [U19C A65U]    1.07
GUUCCGUUGGCGUAAUGGUAACACGUUUCCCUCCUAUGGAGAAGACUGCGGGUUCGAGUCCCGUACGGAACG [G23A C27U A37U]    0.58
GUUCCGUUGGCGUAAUGGUAACGCCUCUCCCUCCUAAGGAGACGACUGUGGGUUCGAGUCCCGUACGGAACG [G25C A43C C49U]    0.632
GUUCCGUUGGCGAAAUGGUAACGCGUCUCCCUCCUAAGGCGAAGACUGCGGGUUCGAGUCCCGUACGGGACG [U13A A40C A69G]    0.629
GUACCGUUGGGGUCAUGGUAACGGGUCUCCCUCCUAAGGAGAAGACUGCGGGUUCGAGUCCUGUGCGGAACG [U3A C11G A14C C24G C62U A65G]    0.595
GUACCGUUGGCGUAAUGGUAACGCGUCUCCCUCCUUAGGAGAAGACUGCGGGUUCGAGUCCCGUACGGAACG [U3A A36U]    0.681
GUUCCGUUGGCGUAAUGGUAACGCGUUUCCCUCCUAAGGAGAAGACUGCGGGUCCGAGUCCCGUACGGAACG [C27U U54C]    0.93
GUCCCGUUGGCGUAAUGGUAACGCGUCUCCCUCCUAAGGAGAAGACUGCGGGUUCAAGUCCCGUACGGCACG [U3C G56A A69C]    0.802
GUUCCAUUGGCGUAAUGGUAACGCGACUCCCUCCUAAGGAGAAGACUGCGGGUUCGAGUCCCGUACGGAACG [G6A U26A]    0.95
GUUCCGUUGGCGUAAUGGUAACGCGUCUCACUCCUAAGGAGAAGACUGCGGGUUUGAGUCCGGUACGGAACG [C30A C55U C62G]    0.508
GUGCCGUUGGCGUAAUGAUAACGCGUCACCCUCCUAAGGAGAAGACUGCGGGUUCGAGUCCCGUACGGAACG [U3G G18A U28A]    0.613
GUUCCGUUGGCGUAAUGGUAACGCCUCUCCCCCCUAAGGAGAAGACUGCGGGUUCGAGUCCCGUACGGAACG [G25C U32C]    0.948
GUUCCGUUGGCGUAAUAGUAACGCGUCUCCCUCCUAAGGAGAAGACUGCGGGUUCGAGUCACAUACAGAACG [G17A C61A G63A G67A]    0.542
